Data origin, for the record: ChEMBL document CHEMBL1201861

Exercise: for every item that follows, state its recorded IC50.
system: KYSE-270; assay: cells; format: functional, cell-based, Homo sapiens; details: Homo sapiens, KYSE-270;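 note: cell growth inhibition measured with a viability assay in the human KYSE-270 line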
Description: SANGER: Inhibition of human KYSE-270 cell growth in a cell viability assay.

Field request: IC50 | item: COc1cc(F)c(F)c(Nc2ccc(I)cc2F)c1NS(=O)(=O)C1(CC(O)CO)CC1 (stereo not given)
> 5 µM

Field request: IC50 | item: `CCOc1nc(NC(=O)Cc2cc(OC)ccc2OC)cc(N)c1C#N`
> 10 µM

Field request: IC50 | item: `COC(=O)CNC(=O)C(=O)OC`
275 µM

Field request: IC50 | item: `Cc1cnc(-c2cnc(NCCNc3ccc(C#N)cn3)nc2-c2ccc(Cl)cc2Cl)[nH]1`
> 2.56 µM

Field request: IC50 | item: `C[C@]1(O)C[C@@H](c2nc(-c3ccc4ccc(-c5ccccc5)nc4c3)c3c(N)nccn32)C1`
> 2.56 µM

* * *

test system: ES6; assay: cells; type: functional, cell-based, Homo sapiens; details: Homo sapiens, ES6;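 note: growth inhibition of human ES6 cells, read out with a cell viability assay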
Description: SANGER: Inhibition of human ES6 cell growth in a cell viability assay.
Readout: IC50

Field request: IC50 | item: `CCOc1nc(NC(=O)Cc2cc(OC)ccc2OC)cc(N)c1C#N`
> 10 µM

Field request: IC50 | item: `Cc1cc([C@@H](C)Nc2ccccc2C(=O)O)c2nc(N3CCOCC3)cc(=O)n2c1`
> 5.12 µM

Field request: IC50 | item: `COc1ccc(C2=N[C@@H](c3ccc(Cl)cc3)[C@@H](c3ccc(Cl)cc3)N2C(=O)N2CCNC(=O)C2)c(OC(C)C)c1`
> 8 µM

Field request: IC50 | item: `C=CCNC1=C2C[C@@H](C)C[C@H](OC)[C@H](O)[C@@H](C)/C=C(\C)[C@H](OC(N)=O)[C@@H](OC)/C=C\C=C(/C)C(=O)NC(=CC1=O)C2=O`
> 1 µM

Field request: IC50 | item: `CN1CCN(CCOc2cc(OC3CCOCC3)c3c(Nc4c(Cl)ccc5c4OCO5)ncnc3c2)CC1`
> 2 µM

* * *

test system: HCC1954; test: cells; type: functional, cell-based, Homo sapiens; settings: Homo sapiens, HCC1954
Description: SANGER: Inhibition of human HCC1954 cell growth in a cell viability assay.
pIC50: −log10 of the molar value.
Readout: pIC50

Given the entry `O=C(c1cc(Cc2n[nH]c(=O)c3ccccc23)ccc1F)N1CCN(C(=O)C2CC2)CC1` , what pIC50 was observed with HCC1954?
< 5.30

Given the entry `Cn1cncc1[C@@](N)(c1ccc(Cl)cc1)c1ccc2c(c1)c(-c1cccc(Cl)c1)cc(=O)n2C` , what pIC50 was observed with HCC1954?
4.84

Given the entry `CC(=O)O[C@@H]1[C@@H](OC(C)=O)[C@@H](O)[C@H](Oc2c(-c3ccc(O)cc3)oc3cc(O)cc(O)c3c2=O)O[C@H]1C` , what pIC50 was observed with HCC1954?
< 5.00

* * *

Exercise: for every item that follows, state its recorded pIC50.
system: COLO-679; experiment: cells; assay type: functional, cell-based, Homo sapiens; details: Homo sapiens, COLO-679
Description: SANGER: Inhibition of human COLO-679 cell growth in a cell viability assay.
Just so you know, pIC50 here is -log10 of the concentration in molar units; reply with that number alone.

Field request: pIC50 | item: C=CCNC1=C2C[C@@H](C)C[C@H](OC)[C@H](O)[C@@H](C)/C=C(\C)[C@H](OC(N)=O)[C@@H](OC)/C=C\C=C(/C)C(=O)NC(=CC1=O)C2=O [TANESPIMYCIN]
6.95

Field request: pIC50 | item: COc1cc(F)c(F)c(Nc2ccc(I)cc2F)c1NS(=O)(=O)C1(CC(O)CO)CC1 (stereo not given)
6.82

* * *

Exercise: for every item that follows, state its recorded pIC50.
tested on: YAPC; assay: cells; assay type: functional, cell-based, Homo sapiens; conditions: Homo sapiens, YAPC;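 note: growth inhibition of YAPC cells, measured with a cell viability assay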
Description: SANGER: Inhibition of human YAPC cell growth in a cell viability assay.
pIC50: −log10 of the molar value.

Given the entry `CN(c1ncccc1CNc1nc(Nc2ccc3c(c2)CC(=O)N3)ncc1C(F)(F)F)S(C)(=O)=O` , what pIC50 was observed with YAPC?
< 5.59

Given the entry `COc1ccc(-c2ccc3c(N4CCOC[C@@H]4C)nc(N4CCOC[C@@H]4C)nc3n2)cc1CO` , what pIC50 was observed with YAPC?
< 5.70

Given the entry `C=CCNC1=C2C[C@@H](C)C[C@H](OC)[C@H](O)[C@@H](C)/C=C(\C)[C@H](OC(N)=O)[C@@H](OC)/C=C\C=C(/C)C(=O)NC(=CC1=O)C2=O` , what pIC50 was observed with YAPC?
6.35

Given the entry `COC(=O)CNC(=O)C(=O)OC` , what pIC50 was observed with YAPC?
< 2.40

Given the entry `C=CCc1cccc(/C=N/NC(=O)CN2CCN(Cc3ccccc3)CC2)c1O` , what pIC50 was observed with YAPC?
< 5.59

Given the entry `O=c1cc(-c2cccc3c2Sc2ccccc2S3)oc(N2CCOCC2)c1` , what pIC50 was observed with YAPC?
< 5.00

Given the entry COc1cc([C@@H]2c3cc4c(cc3[C@@H](O[C@@H]3O[C@@H]5CO[C@@H](C)O[C@H]5[C@H](O)[C@H]3O)[C@H]3COC(=O)[C@H]23)OCO4)cc(OC)c1O [ETOPOSIDE] , what pIC50 was observed with YAPC?
< 4.80

Given the entry `Cn1cncc1[C@@](N)(c1ccc(Cl)cc1)c1ccc2c(c1)c(-c1cccc(Cl)c1)cc(=O)n2C` , what pIC50 was observed with YAPC?
< 4.80

* * *

tested on: LB1047-RCC; assay: cells; type: functional, cell-based, Homo sapiens; details: lb1047-rcc
Description: SANGER: Inhibition of human LB1047-RCC cell growth in a cell viability assay.
pIC50: −log10 of the molar value.
Readout: pIC50

Field request: pIC50 | item: `Cc1cc([C@@H](C)Nc2ccccc2C(=O)O)c2nc(N3CCOCC3)cc(=O)n2c1`
< 5.29

* * *

Exercise: for every item that follows, state its recorded IC50.
tested on: MZ2-MEL; experiment: cells; type: functional, cell-based, Homo sapiens; details: Homo sapiens, MZ2-MEL
Description: SANGER: Inhibition of human MZ2-MEL cell growth in a cell viability assay.
Form entry: value (µM) — number only.

Field request: IC50 | item: COc1cc(F)c(F)c(Nc2ccc(I)cc2F)c1NS(=O)(=O)C1(CC(O)CO)CC1 (stereo not given)
0.319

Field request: IC50 | item: `Nc1ccn([C@@H]2O[C@H](CO)[C@@H](O)[C@@H]2O)c(=O)n1`
1.43

Field request: IC50 | item: `COC(=O)CNC(=O)C(=O)OC`
478

* * *

tested on: MDA-MB-134-VI; assay: cells; assay type: functional, cell-based; details: Homo sapiens
Description: SANGER: Inhibition of human MDA-MB-134-VI cell growth in a cell viability assay.
pIC50: −log10 of the molar value.
Exercise: for every item that follows, state its recorded pIC50.

Field request: pIC50 | item: `CC1=C2C[C@H]3[C@@H](CC=C4C[C@@H](O)CC[C@@]43C)[C@@H]2CC[C@]12O[C@@H]1C[C@H](C)CN[C@H]1[C@H]2C`
< 4.80

Field request: pIC50 | item: `Cn1cncc1[C@@](N)(c1ccc(Cl)cc1)c1ccc2c(c1)c(-c1cccc(Cl)c1)cc(=O)n2C`
< 4.80

Field request: pIC50 | item: `C=CCc1cccc(/C=N/NC(=O)CN2CCN(Cc3ccccc3)CC2)c1O`
< 5.59

* * *

system: TCC-SUP; assay: cells; format: functional, cell-based, Homo sapiens; details: tcc-sup
Description: SANGER: Inhibition of human TCCSUP cell growth in a cell viability assay.
Readout: IC50

Given the entry Cc1cc([C@@H](C)Nc2ccccc2C(=O)O)c2nc(N3CCOCC3)cc(=O)n2c1 [AZD-6482] , what IC50 was observed with TCC-SUP?
> 5.12 µM

* * *

tested on: JVM-3; test: cells; format: functional, cell-based; conditions: Homo sapiens
Description: SANGER: Inhibition of human JVM-3 cell growth in a cell viability assay.
Readout: IC50

Field request: IC50 | item: CN(C)C/C=C/C(=O)Nc1cc2c(Nc3ccc(F)c(Cl)c3)ncnc2cc1O[C@H]1CCOC1 [AFATINIB]
> 500 nM

Field request: IC50 | item: CCC(=O)N1CCN(c2ccc(-n3c(=O)ccc4cnc5ccc(-c6cnc7ccccc7c6)cc5c43)cc2C(F)(F)F)CC1 [TORIN1]
> 1200 nM

Field request: IC50 | item: Cn1cncc1[C@@](N)(c1ccc(Cl)cc1)c1ccc2c(c1)c(-c1cccc(Cl)c1)cc(=O)n2C [TIPIFARNIB]
> 16000 nM

Field request: IC50 | item: CS(=O)(=O)CCNCc1ccc(-c2ccc3ncnc(Nc4ccc(OCc5cccc(F)c5)c(Cl)c4)c3c2)o1 [LAPATINIB]
> 2000 nM

Field request: IC50 | item: CC(=O)O[C@@]12CO[C@@H]1C[C@H](O)[C@@]1(C)C(=O)[C@H](O)C3=C(C)[C@@H](OC(=O)[C@H](O)[C@@H](NC(=O)OC(C)(C)C)c4ccccc4)C[C@@](O)([C@@H](OC(=O)c4ccccc4)[C@H]21)C3(C)C [DOCETAXEL]
2.33 nM

Field request: IC50 | item: COc1cc(F)c(F)c(Nc2ccc(I)cc2F)c1NS(=O)(=O)C1(CC(O)CO)CC1 (configuration not stated)
4380 nM

Field request: IC50 | item: CN(c1ncccc1CNc1nc(Nc2ccc3c(c2)CC(=O)N3)ncc1C(F)(F)F)S(C)(=O)=O [PF-00562271]
> 2560 nM
